Reference source for all entries: ChEMBL document CHEMBL1128421

Target chain: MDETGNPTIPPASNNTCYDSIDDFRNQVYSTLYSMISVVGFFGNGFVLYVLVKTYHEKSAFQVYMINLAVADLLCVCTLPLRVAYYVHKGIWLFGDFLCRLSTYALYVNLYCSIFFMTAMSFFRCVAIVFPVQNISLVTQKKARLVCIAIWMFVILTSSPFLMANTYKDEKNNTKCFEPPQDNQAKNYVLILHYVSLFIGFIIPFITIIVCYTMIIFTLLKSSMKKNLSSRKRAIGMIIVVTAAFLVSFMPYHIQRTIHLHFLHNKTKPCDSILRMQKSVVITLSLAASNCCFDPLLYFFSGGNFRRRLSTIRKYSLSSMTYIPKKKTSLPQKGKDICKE
parameter: Kd (µM)
Numeric answer only, unit µM assumed.

Input line: # lookup: Kd of O=C(O)c1cc(=O)c2cc(OCCCN3CCC(=C(c4ccccc4)c4ccccc4)CC3)ccc2o1
Output line: 4.27

====

Molecular target: Histamine H1 receptor (Cavia porcellus)
Sequence (P31389 whole entry): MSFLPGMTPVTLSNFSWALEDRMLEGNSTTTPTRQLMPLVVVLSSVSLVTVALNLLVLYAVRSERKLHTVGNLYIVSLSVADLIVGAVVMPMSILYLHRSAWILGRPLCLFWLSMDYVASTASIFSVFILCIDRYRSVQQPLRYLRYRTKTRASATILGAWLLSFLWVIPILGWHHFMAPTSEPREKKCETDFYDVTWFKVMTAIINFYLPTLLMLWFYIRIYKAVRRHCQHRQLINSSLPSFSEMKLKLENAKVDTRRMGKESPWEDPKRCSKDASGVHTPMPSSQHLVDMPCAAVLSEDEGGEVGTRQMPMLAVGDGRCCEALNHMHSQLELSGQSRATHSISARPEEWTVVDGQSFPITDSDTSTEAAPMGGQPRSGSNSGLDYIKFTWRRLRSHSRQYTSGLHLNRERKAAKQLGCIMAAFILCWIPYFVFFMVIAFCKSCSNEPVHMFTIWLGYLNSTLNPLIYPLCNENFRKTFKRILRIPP
Assay: dissociation constant was determined against H1 receptor of guinea pig lung membranes using radioligand binding assays.
Format: tissue-based
parameter: Kd (nM)
Numeric answer only, unit nM assumed.

Input line: # lookup: Kd of O=c1cc(C2N=NN=N2)oc2cc(OCCCN3CCC(=C(c4ccccc4)c4ccccc4)CC3)ccc12
Output line: 5.89
